Biological target: Tyrosine-protein kinase JAK3 (Homo sapiens, UniProt P52333)
Sequence (P52333 whole entry): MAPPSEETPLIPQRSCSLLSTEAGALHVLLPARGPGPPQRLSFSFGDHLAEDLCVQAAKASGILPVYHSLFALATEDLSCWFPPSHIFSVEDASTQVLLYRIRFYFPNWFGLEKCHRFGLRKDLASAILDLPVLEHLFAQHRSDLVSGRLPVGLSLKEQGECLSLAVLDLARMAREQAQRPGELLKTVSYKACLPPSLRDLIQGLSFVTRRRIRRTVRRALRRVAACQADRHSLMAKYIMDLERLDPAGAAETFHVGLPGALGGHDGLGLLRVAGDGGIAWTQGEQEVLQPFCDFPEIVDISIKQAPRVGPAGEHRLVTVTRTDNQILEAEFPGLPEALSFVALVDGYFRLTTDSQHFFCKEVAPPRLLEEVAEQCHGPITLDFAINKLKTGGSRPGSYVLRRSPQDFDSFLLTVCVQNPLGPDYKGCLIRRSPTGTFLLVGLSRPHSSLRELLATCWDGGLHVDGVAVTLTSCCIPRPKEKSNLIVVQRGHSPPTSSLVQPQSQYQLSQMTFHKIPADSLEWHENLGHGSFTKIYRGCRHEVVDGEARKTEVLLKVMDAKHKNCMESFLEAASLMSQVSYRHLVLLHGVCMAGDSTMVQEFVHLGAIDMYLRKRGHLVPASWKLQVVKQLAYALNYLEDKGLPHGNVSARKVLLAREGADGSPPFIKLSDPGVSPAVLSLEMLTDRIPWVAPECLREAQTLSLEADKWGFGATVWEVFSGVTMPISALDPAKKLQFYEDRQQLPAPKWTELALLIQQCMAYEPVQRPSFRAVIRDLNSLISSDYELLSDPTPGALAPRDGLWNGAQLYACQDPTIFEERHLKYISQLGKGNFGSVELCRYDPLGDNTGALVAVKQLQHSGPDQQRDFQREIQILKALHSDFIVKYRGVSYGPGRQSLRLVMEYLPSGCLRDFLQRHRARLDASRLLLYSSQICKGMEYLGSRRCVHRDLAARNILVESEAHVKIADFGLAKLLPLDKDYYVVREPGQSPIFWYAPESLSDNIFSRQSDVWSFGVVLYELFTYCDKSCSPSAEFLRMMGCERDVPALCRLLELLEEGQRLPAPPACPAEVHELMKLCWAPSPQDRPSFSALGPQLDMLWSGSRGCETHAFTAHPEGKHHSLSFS
PROPERTY_MEASURED: IC50

QUERY: Check the records and state IC50 for COc1cc(O)c2c(c1)CCCC(=O)C(=O)C(O)CCC[C@H](C)OC2=O (stereo partly drawn) [L-783277]
RESULT: > 10 µM
